molecular target: Shaker-IR-P475A (Drosophila melanogaster, UniProt P08510, DEL6-46/P475A); test: cell-based; conditions: weighted τIKac at +100 mV; read-out: IC50 of acceleration of weighted τIKac
Sequence (P08510 other isoform, or with tags, fused parts or gaps DEL6-46/P475A): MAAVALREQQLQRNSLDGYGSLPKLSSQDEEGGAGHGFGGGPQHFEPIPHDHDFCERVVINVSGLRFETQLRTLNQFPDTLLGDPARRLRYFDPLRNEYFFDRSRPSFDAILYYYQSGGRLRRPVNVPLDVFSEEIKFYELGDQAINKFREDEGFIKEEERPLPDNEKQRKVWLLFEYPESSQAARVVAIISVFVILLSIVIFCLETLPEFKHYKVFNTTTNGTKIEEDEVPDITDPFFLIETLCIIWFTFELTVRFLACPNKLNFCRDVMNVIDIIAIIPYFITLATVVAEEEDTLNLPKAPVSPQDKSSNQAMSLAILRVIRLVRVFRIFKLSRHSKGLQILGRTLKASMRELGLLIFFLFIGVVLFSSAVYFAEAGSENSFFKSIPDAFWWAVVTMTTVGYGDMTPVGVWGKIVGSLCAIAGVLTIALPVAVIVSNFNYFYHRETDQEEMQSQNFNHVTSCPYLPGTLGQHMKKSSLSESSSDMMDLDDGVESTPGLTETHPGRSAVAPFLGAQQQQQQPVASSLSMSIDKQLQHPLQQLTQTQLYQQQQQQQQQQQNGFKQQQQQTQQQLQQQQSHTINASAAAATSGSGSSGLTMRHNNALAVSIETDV
REPORTED_METRIC: IC50 (mM)
Entry rule: numbers only, all in mM.

CCCCO 58.8

Read the next record carefully.
Dear colleague, I am looking for the recorded IC50 of the following compound: CCCCCCO 4.6

----------
# pIC50 per entry
target: Shaker-IR-W434F (Drosophila melanogaster, UniProt P08510, DEL6-46/W434F); construct: expressed in transfected cells; host or cells: HEK293; assay: cell-based; format: cell-based; conditions: weighted τIGdeac at −90 mV; read-out: IC50 of acceleration of VSD deactivation time constant (τIGdeac)
Sequence (P08510 other isoform, or with tags, fused parts or gaps DEL6-46/W434F): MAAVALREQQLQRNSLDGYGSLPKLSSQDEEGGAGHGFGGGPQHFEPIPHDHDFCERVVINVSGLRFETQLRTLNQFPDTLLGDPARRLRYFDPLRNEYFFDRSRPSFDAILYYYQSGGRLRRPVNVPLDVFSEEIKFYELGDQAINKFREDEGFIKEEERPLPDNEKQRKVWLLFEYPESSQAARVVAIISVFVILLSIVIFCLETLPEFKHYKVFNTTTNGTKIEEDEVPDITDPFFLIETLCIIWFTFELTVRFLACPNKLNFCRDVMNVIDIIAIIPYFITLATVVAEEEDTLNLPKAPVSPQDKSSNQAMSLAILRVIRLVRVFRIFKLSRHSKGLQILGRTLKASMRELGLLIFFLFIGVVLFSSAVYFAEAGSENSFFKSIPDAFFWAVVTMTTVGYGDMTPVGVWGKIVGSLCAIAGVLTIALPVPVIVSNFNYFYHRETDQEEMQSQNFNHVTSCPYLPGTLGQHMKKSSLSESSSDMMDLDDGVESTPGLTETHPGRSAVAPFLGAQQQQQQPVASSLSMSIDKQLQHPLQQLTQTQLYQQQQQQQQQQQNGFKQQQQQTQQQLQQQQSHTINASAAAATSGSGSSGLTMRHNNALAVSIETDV
Remember the convention: pIC50 equals -log10 of concentration in molar.

CCCCCCO 2.52

Read the next record carefully.
Dear colleague, I am looking for the recorded pIC50 of the following compound: CCCCO 1.17
